- assay: clinical
- measurement.context: human, plasma, inhaled, 30 mg, Cmin, ss, imatinib in plasma; MAD Day 7; inhaled 30 mg AV-101 BID; mean
endpoint: concentration at 7 day (ng/mL)
Use ng/mL as the unit, but write only the number.

*Q* Requested read-out: concentration at 7 day. Entry: Cc1ccc(NC(=O)c2ccc(CN3CCN(C)CC3)cc2)cc1Nc1nccc(-c2cccnc2)n1
*A* 118

###

- assay: clinical
- measurement.context: human, plasma, inhaled or intranasal, 10 mg
endpoint: AUC(0-t)
A bare number is not enough; add the unit after it.

*Q* Requested read-out: AUC(0-t). Entry: Cc1ccc(NC(=O)c2ccc(CN3CCN(C)CC3)cc2)cc1Nc1nccc(-c2cccnc2)n1 [AV-101, imatinib]
*A* 182 ng·h/mL

###

- assay: clinical
- measurement.context: human, plasma, inhaled, 30 mg, Cav, imatinib in plasma; MAD Day 7; inhaled 30 mg AV-101 BID; mean
endpoint: concentration at 7 day (ng/mL)
Use ng/mL as the unit, but write only the number.

*Q* Requested read-out: concentration at 7 day. Entry: Cc1ccc(NC(=O)c2ccc(CN3CCN(C)CC3)cc2)cc1Nc1nccc(-c2cccnc2)n1 [AV-101, imatinib]
*A* 160

###

- assay: clinical
- measurement.context: human, plasma, inhaled or intranasal, 90 mg
endpoint: AUC(0-t) (ng·h/mL)
Use ng·h/mL as the unit, but write only the number.

*Q* Requested read-out: AUC(0-t). Entry: Cc1ccc(NC(=O)c2ccc(CN3CCN(C)CC3)cc2)cc1Nc1nccc(-c2cccnc2)n1 [AV-101, imatinib]
*A* 2210

###

- assay: clinical
- measurement.context: human, plasma, inhaled or intranasal, 10 mg, Cmax, imatinib in plasma; MAD Day 1; inhaled 10 mg AV-101; mean
endpoint: Cmax (ng/mL)
Use ng/mL as the unit, but write only the number.

*Q* Requested read-out: Cmax. Entry: Cc1ccc(NC(=O)c2ccc(CN3CCN(C)CC3)cc2)cc1Nc1nccc(-c2cccnc2)n1
*A* 24.1

###

- assay: clinical
- measurement.context: human, plasma, inhaled or intranasal, 90 mg, Cmax, ss, imatinib in plasma; MAD Day 7; inhaled 90 mg AV-101 BID; mean
endpoint: Cmax

*Q* Requested read-out: Cmax. Entry: Cc1ccc(NC(=O)c2ccc(CN3CCN(C)CC3)cc2)cc1Nc1nccc(-c2cccnc2)n1 [AV-101, imatinib]
*A* 890 ng/mL

###

- assay: clinical
- measurement.context: human, in vivo, inhaled or intranasal, 1 mg
endpoint: Cmax (ng/mL)
Use ng/mL as the unit, but write only the number.

*Q* Requested read-out: Cmax. Entry: Cc1ccc(NC(=O)c2ccc(CN3CCN(C)CC3)cc2)cc1Nc1nccc(-c2cccnc2)n1 [AV-101, imatinib]
*A* 1.16

###

- assay: clinical
- measurement.context: human, in vivo, inhaled or intranasal, 3 mg
endpoint: AUC(0-t) (ng·h/mL)
Use ng·h/mL as the unit, but write only the number.

*Q* Requested read-out: AUC(0-t). Entry: Cc1ccc(NC(=O)c2ccc(CN3CCN(C)CC3)cc2)cc1Nc1nccc(-c2cccnc2)n1
*A* 65.4

###

- assay: clinical
- measurement.context: human, plasma, inhaled or intranasal, 30 mg, Cmax, ss, imatinib in plasma; MAD Day 7; inhaled 30 mg AV-101 BID; mean
endpoint: Cmax (ng/mL)
Use ng/mL as the unit, but write only the number.

*Q* Requested read-out: Cmax. Entry: Cc1ccc(NC(=O)c2ccc(CN3CCN(C)CC3)cc2)cc1Nc1nccc(-c2cccnc2)n1
*A* 215

All figures here come from patent US20240325390A1.
